Biological target: Corticotropin-releasing factor receptor 1 (Homo sapiens)
Sequence (P34998 whole entry): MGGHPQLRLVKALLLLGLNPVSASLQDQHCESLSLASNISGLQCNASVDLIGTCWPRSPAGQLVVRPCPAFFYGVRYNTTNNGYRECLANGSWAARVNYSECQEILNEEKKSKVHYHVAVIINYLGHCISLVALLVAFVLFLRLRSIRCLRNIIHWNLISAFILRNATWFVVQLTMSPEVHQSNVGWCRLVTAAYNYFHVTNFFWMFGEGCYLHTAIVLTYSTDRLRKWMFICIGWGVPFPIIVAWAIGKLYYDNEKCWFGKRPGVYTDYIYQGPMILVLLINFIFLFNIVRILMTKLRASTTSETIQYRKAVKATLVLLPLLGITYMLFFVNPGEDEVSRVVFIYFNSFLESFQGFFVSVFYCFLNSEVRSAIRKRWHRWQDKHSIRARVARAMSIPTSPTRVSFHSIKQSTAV
Assay: Displacement of [125I]-Tyr0-sauvagine from human CRFR1 expressed in HEK293 cell membrane homogenates after 120 mins by gamma counting method
MEASUREMENT_TYPE: pIC50
Conceptually, pIC50 converts a concentration in mol/L into minus its log10.

Known pIC50 results, listed for orientation:
>  <RECORD_SMILES>
CCN(CC)c1nc(C)nc2c1sc(=N)n2-c1c(C)cc(C)cc1C

>  <ASSAY_TARGET>
Corticotropin-releasing factor receptor 1 (Homo sapiens)

>  <pIC50>
6.05

$$$$
>  <RECORD_SMILES>
CCCCN(CC)c1nc(C)nc2c1sc(=N)n2-c1c(C)cc(C)cc1C

>  <ASSAY_TARGET>
Corticotropin-releasing factor receptor 1 (Homo sapiens)

>  <pIC50>
6.77

$$$$

Could you now look at the following molecule, please?
*Q* Reported pIC50 for `CCN(CC)c1nc(C)nc2c1s/c(=N/N)n2-c1c(C)cc(C)cc1C` : what is it?
*A* 6.35
